Give measured pIC50 for each item. Keep answers brief.
biological target: HLA-DR11 molecule (DRB1*1101) (Homo sapiens, UniProt P01903+P01911, A100R/A169T/A87E/I96F/K41T/L162R/M171V/P40S/Q125H/Q178H/Q39Y/Q99D/R42S/S66Y/T262R/V115G/W38E); construct: endogenous in cells; assay: biochemical
Sequence (P01903 26-254, other chains not shown): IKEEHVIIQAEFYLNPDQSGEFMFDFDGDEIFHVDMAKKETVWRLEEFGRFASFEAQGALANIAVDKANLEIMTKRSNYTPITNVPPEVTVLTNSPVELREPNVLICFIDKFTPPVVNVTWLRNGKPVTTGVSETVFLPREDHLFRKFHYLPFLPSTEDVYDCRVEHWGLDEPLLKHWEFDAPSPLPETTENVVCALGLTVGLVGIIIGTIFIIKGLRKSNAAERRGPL
Numbers only, as −log10 of the molar value.

// batch mode: one pIC50 value per listed entry
1. CC[C@H](C)[C@H](NC(=O)[C@H](CC(=O)O)NC(=O)[C@@H](N)Cc1c[nH]cn1)C(=O)N[C@H](C(=O)N[C@@H](CC(C)C)C(=O)N[C@@H](CCC(=O)O)C(=O)N[C@@H](CS)C(=O)N[C@H](C(=O)N[C@@H](Cc1ccc(O)cc1)C(=O)N[C@@H](CS)C(=O)N[C@@H](CCCCN)C(=O)N[C@@H](CCC(N)=O)C(=O)N[C@@H](CCC(N)=O)C(=O)N[C@@H](CC(C)C)C(=O)N[C@@H](CC(C)C)C(=O)O)C(C)C)[C@@H](C)CC [E6 31-45, H D I I L E C V Y C K Q Q L L]
2. CC[C@H](C)[C@H](NC(=O)[C@H](CCCCN)NC(=O)[C@H](CO)NC(=O)[C@H](Cc1ccc(O)cc1)NC(=O)[C@H](Cc1ccccc1)NC(=O)[C@H](CCCCN)NC(=O)[C@H](CC(C)C)NC(=O)[C@H](CS)NC(=O)[C@H](CCCCN)NC(=O)[C@H](CC(=O)O)NC(=O)[C@H](CS)NC(=O)[C@@H](NC(=O)[C@H](C)NC(=O)[C@H](Cc1ccc(O)cc1)NC(=O)[C@@H]1CCCN1C(=O)[C@H](CC(N)=O)NC(=O)CNC(=O)[C@H](CC(=O)O)NC(=O)[C@H](CCCNC(=N)N)NC(=O)[C@@H](N)Cc1ccc(O)cc1)C(C)C)C(=O)O [E6/5]

[6.22, 7.22]

* * *

Target: HLA-DR4 molecule (DRB1*0401) (Homo sapiens, UniProt P01903+P01911, A100K/A169T/F76Y/I96L/K127E/L162R/M171V/N62H/P40V/Q125Y/R42H/S133A/S149N/S66Y/V115G/V209L/W38E)
Construct: endogenous in cells
Assay: HLA-DR/peptide competition binding assay, DRB1*0401
Description: The incubation conditions are specific to each HLA-DR molecule (incubation time, pH, reagent R1, concentration of HLA-DR or of peptide). […] The HLA-DR molecules were purified from various homozygous EBV lines by immunoaffinity. The method described in Southwood et al. (24) can in particular be used. Their origin and the various alleles which characterize them are described in table IV. […]
PROPERTY NAME: pIC50
Numbers only, as −log10 of the molar value.

Entry "CSCC[C@H](NC(=O)[C@H](Cc1ccc(O)cc1)NC(=O)[C@H](CCC(=O)O)NC(=O)[C@H](Cc1c[nH]cn1)NC(=O)[C@H](CC(C)C)NC(=O)[C@@H](NC(=O)[C@@H]1CCCN1)[C@@H](C)O)C(=O)N[C@@H](CC(C)C)C(=O)N[C@@H](CC(=O)O)C(=O)N[C@@H](CC(C)C)C(=O)N[C@@H](CCC(N)=O)C(=O)N1CCC[C@H]1C(=O)N[C@@H](CCC(=O)O)C(=O)N[C@H](C(=O)N[C@H](C(=O)O)[C@@H](C)O)[C@@H](C)O" has what pIC50?
6.76
